system: Fer (mouse); test: phosphorylation enrichment, bacterial display (enrichment ratio); higher = better substrate or ligand; peptides without Tyr show the background
Consider the following sequences and their measured phosphorylation enrichment readings.
Reply with the value as a number alone.

INSERT INTO measurements (sequence_input, endpoint, result_number) VALUES
  ('NKFTTYLPWLP [C9orf24_Y126_R129W_YF]', 'phosphorylation enrichment', 6.84),
  ('QGIPRYHSQSP [FOXF1_Y331]', 'phosphorylation enrichment', 0.744),
  ('PPAPRYHDSAV [LZTR1_Y119_H121D]', 'phosphorylation enrichment', 0.448),
  ('CTTIHYIFMCN [TP53_Y234_N235I_YF]', 'phosphorylation enrichment', 0.436);

// below: phosphorylation enrichment requested for another sequence
Prompt line: Using known records, supply phosphorylation enrichment for LLEGKYEWQEV [CDKN1B_Y74_P69L]
Response line: 1.75

====

target: Fyn (UniProt P06241); experiment: phosphorylation enrichment, bacterial display (enrichment ratio); higher = better substrate or ligand; peptides without Tyr show the background
Sequence (P06241 whole entry, looked up): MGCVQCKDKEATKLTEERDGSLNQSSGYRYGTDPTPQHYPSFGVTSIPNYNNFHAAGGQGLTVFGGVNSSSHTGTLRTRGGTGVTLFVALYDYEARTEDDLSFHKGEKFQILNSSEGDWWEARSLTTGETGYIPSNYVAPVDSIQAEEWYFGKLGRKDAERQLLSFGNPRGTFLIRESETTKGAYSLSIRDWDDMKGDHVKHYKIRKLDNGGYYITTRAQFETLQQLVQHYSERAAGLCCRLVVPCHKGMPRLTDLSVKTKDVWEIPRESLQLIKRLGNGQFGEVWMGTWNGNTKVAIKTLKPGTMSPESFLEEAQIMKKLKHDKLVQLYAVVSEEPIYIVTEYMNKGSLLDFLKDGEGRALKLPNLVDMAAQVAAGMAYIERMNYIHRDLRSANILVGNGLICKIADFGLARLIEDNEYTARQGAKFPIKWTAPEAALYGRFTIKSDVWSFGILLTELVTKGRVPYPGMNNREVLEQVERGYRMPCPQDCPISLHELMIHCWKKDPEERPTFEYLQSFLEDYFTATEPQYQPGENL
Reported phosphorylation enrichment by item:
Give a plain numeric answer without units written out.

Example cases with answers are listed next.
INSERT INTO results (sequence_input, target_under_test, result_number) VALUES
  ('ISDDKYGRIRL [ARCN1_Y310]', 'Fyn (UniProt P06241)', 0.434),
  ('PSQRRYLFFFS [PTEN_Y174_V175L_YF]', 'Fyn (UniProt P06241)', 0.753);

Prompt line: Please look at this sequence and report its phosphorylation enrichment: YDCGMYSHLQG [LGR4_Y848]
Response line: 2.36

====

Listing of recorded phosphorylation enrichment by entry.
biological target: FGFR3 (UniProt P22607); experiment: phosphorylation enrichment, bacterial display (enrichment ratio); higher = better substrate or ligand; peptides without Tyr show the background
Sequence (P22607 whole entry, looked up): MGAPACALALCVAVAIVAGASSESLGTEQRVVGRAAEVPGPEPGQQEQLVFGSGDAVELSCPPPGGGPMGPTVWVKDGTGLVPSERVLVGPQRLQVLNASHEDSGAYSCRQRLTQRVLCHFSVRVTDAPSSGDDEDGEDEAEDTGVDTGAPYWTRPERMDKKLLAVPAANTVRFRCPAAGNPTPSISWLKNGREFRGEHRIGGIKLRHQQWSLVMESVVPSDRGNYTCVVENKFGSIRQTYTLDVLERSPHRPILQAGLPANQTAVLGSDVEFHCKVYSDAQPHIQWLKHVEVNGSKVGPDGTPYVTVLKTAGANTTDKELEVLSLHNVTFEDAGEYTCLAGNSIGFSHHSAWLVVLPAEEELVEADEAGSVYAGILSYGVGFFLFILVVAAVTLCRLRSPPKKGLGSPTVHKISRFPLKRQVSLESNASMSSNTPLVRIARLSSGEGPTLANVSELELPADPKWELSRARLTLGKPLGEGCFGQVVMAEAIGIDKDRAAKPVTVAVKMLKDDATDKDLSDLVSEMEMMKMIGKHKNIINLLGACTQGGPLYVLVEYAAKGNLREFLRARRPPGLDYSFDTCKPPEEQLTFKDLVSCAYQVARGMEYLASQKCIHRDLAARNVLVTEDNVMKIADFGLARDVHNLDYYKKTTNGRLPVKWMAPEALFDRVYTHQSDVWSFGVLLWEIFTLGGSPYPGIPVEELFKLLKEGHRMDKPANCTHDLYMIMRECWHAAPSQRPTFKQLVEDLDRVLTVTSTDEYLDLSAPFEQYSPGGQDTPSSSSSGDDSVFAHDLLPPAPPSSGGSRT
Answer as a number with no unit attached.

The following sequences have reported results that may help.
INSERT INTO assay_data (sequence_input, endpoint, result_number) VALUES
  ('THLAPYSDELR [APOA1_Y190]', 'phosphorylation enrichment', 0.594),
  ('FSEVRYMKEPF [HIPK4_Y170_V171M_YF]', 'phosphorylation enrichment', 0.48),
  ('VGTKRYMAPEV [ACVRL1_Y375]', 'phosphorylation enrichment', 0.446),
  ('NTILLYHIMAW [GPR143_Y157_S152N]', 'phosphorylation enrichment', 3.15),
  ('PPAPRYHDSAV [LZTR1_Y119_H121D]', 'phosphorylation enrichment', 0.711);

Prompt line: State its phosphorylation enrichment: RQQEVYLLFKQ [RARRES1_Y159_D158V_YF]
Response line: 1.19

Prompt line: Consider the sequence ISSLDYISKSK [VAV3_Y294_T298S] . State its measured phosphorylation enrichment.
Response line: 0.587

Prompt line: Return phosphorylation enrichment (reported value) for this sequence: LERYIYNPEEF [HLA-DPB1_Y59_R61P]
Response line: 0.902

Prompt line: Using the record for QFPDIYAREEV [CRX_Y67_V66I_YF] , state its measured phosphorylation enrichment.
Response line: 1.26

Prompt line: Please indicate phosphorylation enrichment recorded for MPIPMYDASQA [CARMIL1_Y637]
Response line: 0.629

Prompt line: Determine from records and report phosphorylation enrichment for QRIHDYYEHRY [HCN4_Y554]
Response line: 9.67

Prompt line: Return reported phosphorylation enrichment. Input sequence: DPGVSYHTREE [PDHA1_Y301_R302H]
Response line: 0.548

Prompt line: Please report the measured phosphorylation enrichment for HSKGIYYVQLE [MGAT4B_Y262_Q257H]
Response line: 3.3

====

Consider the following sequences and their measured phosphorylation enrichment readings.
target: Fyn (UniProt P06241); test: phosphorylation enrichment, bacterial display (enrichment ratio); higher = better substrate or ligand; peptides without Tyr show the background
Output spec: single numeric token, no unit.

Prompt line: Answer with the recorded phosphorylation enrichment of AAETTYDKILK [GDNF_Y156] only.
Response line: 0.596

Prompt line: Complete the entry with phosphorylation enrichment for LFVDVYGPSVP [NUBPL_Y109_D105Y_YF]
Response line: 1.16

Prompt line: Fill in reported phosphorylation enrichment for this entry: RFVSRYIFNRE [HLA-DQB1_Y62_T60S_YF]
Response line: 1.05

Prompt line: Let me know recorded phosphorylation enrichment for NWGSPYKSDGC [ZNF347_Y261_N264D] , thanks.
Response line: 0.4

Prompt line: Return phosphorylation enrichment for the following sequence: ILTLKYPIERG [ACTA1_Y71_H75R]
Response line: 0.554

Prompt line: Identify phosphorylation enrichment associated with the sequence HDHYGYRQSVT [CD55_Y245_R240H]
Response line: 0.94

Prompt line: Report phosphorylation enrichment, nothing else, for this sequence: EQKKFYNAMKN [SCN5A_Y1495_K1500N_YF]
Response line: 0.367

Prompt line: Provide measured phosphorylation enrichment value, entry: CTTIHYNYMSN [TP53_Y234_C238S]
Response line: 0.396

Prompt line: Please indicate phosphorylation enrichment recorded for PMDTFYDSTRG [DYNC2H1_Y2231_YF]
Response line: 0.982

Prompt line: Return reported phosphorylation enrichment. Input sequence: GYRVCYTPDSR [PTPRF_Y451_Y450C]
Response line: 0.498

Prompt line: Tell us which phosphorylation enrichment value is on record for PVKSEYSSIKL [NPC2_Y119_P120S]
Response line: 0.553

Prompt line: Look up and state reported phosphorylation enrichment for SVTCTYSPAIN [TP53_Y126_L130I]
Response line: 0.615

====

biological target: SHP2-C SH2; test: SH2 binding enrichment of the phosphorylated peptide, bacterial display (enrichment ratio); higher = better substrate or ligand; peptides without Tyr show the background;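 note: peptide library displayed on the E. coli surface as eCPX fusions, selected cells deep-sequenced, score is each peptide's frequency after selection divided by its frequency in the input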
endpoint: SH2 binding enrichment
Give your answer as a number; write no unit.

Here are 4 sequences together with their reported answers.
INSERT INTO assay_data (sequence_input, target_under_test, result_number) VALUES
  ('QKDIFYGLRSL [IGSF10_Y126_T124I]', 'SHP2-C SH2', 1.14),
  ('ADSLRYIYPKL [EIF2B3_Y92]', 'SHP2-C SH2', 1.89),
  ('TNIKRYHIAKV [HARS1_Y150]', 'SHP2-C SH2', 0.986),
  ('TSGVVYKARNK [CDK2_Y19_Y15S]', 'SHP2-C SH2', 0.866);

Prompt line: Report SH2 binding enrichment for EEQKKYFNATK [SCN5A_Y1494_M1498T_YF]
Response line: 0.516

Prompt line: Give a short answer stating reported SH2 binding enrichment for NTQRPYFKGGG [TYROBP_Y111_YF] .
Response line: 1.02

Prompt line: For the sequence CFSSEYHFVGG [CTSC_Y345_Y340C_YF] , give its measured SH2 binding enrichment value.
Response line: 0.694

Prompt line: Tell us which SH2 binding enrichment value is on record for PGNIVYSSLCG [BCOR_Y90]
Response line: 1.51

Prompt line: Return the recorded SH2 binding enrichment value; entry: SNMPSYSGHFT [GRIN2A_Y1224_T1223S]
Response line: 0.631

Prompt line: Answer with the recorded SH2 binding enrichment of FSKTQYNQVPS [CXADR_Y318_YF] only.
Response line: 1.03

Prompt line: Quick one: give measured SH2 binding enrichment for FRIDHYLGKEM [G6PD_Y202_YF]
Response line: 0.607

Prompt line: For AIFWRYSKFFD [SH3PXD2B_Y45_R43W_YF] , write its SH2 binding enrichment.
Response line: 0.782

====

tested on: Fer (mouse); assay: phosphorylation enrichment, bacterial display (enrichment ratio); higher = better substrate or ligand; peptides without Tyr show the background
Each item that follows carries a reported phosphorylation enrichment.
The reply should be a number, written without any unit.

Examples with their reported phosphorylation enrichment follow.
INSERT INTO assay_data (sequence_input, target_under_test, result_number) VALUES
  ('MDNQEYKDAYK [BRDT_Y331]', 'Fer (mouse)', 0.456),
  ('NQDRTYFERVR [SPEN_Y632_S635R_YF]', 'Fer (mouse)', 0.401),
  ('KDHPDYKYPPR [SOX10_Y171_Q174P]', 'Fer (mouse)', 0.345),
  ('AELVQYFMEHH [PTPN11_Y80_YF]', 'Fer (mouse)', 0.463),
  ('SHLSSYTTHPQ [NIPBL_Y195_P192L]', 'Fer (mouse)', 0.392);

Prompt line: Please look at this sequence and report its phosphorylation enrichment: SIKDKHVTALY [KCNH2_Y611_Y611H]
Response line: 0.388

Prompt line: Output phosphorylation enrichment of KGTAGYTTVAV [RET_Y752_R749T]
Response line: 0.313

Prompt line: Give a short answer stating reported phosphorylation enrichment for QRRLIYRCQVG [NR2E3_Y81_R76Q] .
Response line: 0.643

Prompt line: For the sequence ADKAAYLQSMN [MYH2_Y389_L393M] , report phosphorylation enrichment.
Response line: 0.411

Prompt line: Supply phosphorylation enrichment value. Item: PVKSEYSSIKL [NPC2_Y119_P120S]
Response line: 0.702

Prompt line: Look up phosphorylation enrichment of SNMPSYSGHFT [GRIN2A_Y1224_T1223S] and report it.
Response line: 1.6
